experiment: Solubility of CD101 acetate in various media; assay type: physicochemical; conditions: 0.9% saline with 0.5% Tween 80, aqueous with cosolvent or surfactant or cyclodextrin; 0.9% Saline (USP) with 0.5% Tween 80; read-out: Solubility
Starred links: 1 amine or outer side, 2 acyl side, 3 side chain; linkers in the order of their positions; H or OH if unused. Positions of bridges follow the written chain, without caps; N, C: chain ends. Non-standard residues stand in square brackets, D forms with d. Residues, ends and D or L forms follow the SMILES beside them. *: point of attachment. Orn(4R-OH,5R-OCH2CH2NMe3+) = C[N+](C)(C)CCO[C@@H](N[*:3])[C@H](O)C[C@H](N[*:1])C(=O)[*:2]; pTerphenylCO(4''-OnC5H11) = CCCCCOc1ccc(-c2ccc(-c3ccc(C(=O)*)cc3)cc2)cc1; hTyr(3S-OH,4S-OH) = N[C@H](C(=O)O)[C@H](O)[C@@H](O)c1ccc(O)cc1; Pro(3S-OH,4S-Me) = C[C@H]1CN[C@H](C(=O)O)[C@H]1O; Hyp = O=C(O)[C@@H]1C[C@@H](O)CN1
Observable: solubility

Record CCCCCOc1ccc(-c2ccc(-c3ccc(C(=O)N[C@H]4C[C@@H](O)[C@@H](OCC[N+](C)(C)C)NC(=O)[C@@H]5[C@@H](O)[C@@H](C)CN5C(=O)[C@H]([C@@H](C)O)NC(=O)[C@H]([C@H](O)[C@@H](O)c5ccc(O)cc5)NC(=O)[C@@H]5C[C@@H](O)CN5C(=O)[C@H]([C@@H](C)O)NC4=O)cc3)cc2)cc1 [CD101 acetate] ({pTerphenylCO(4''-OnC5H11)}-[Orn(4R-OH,5R-OCH2CH2NMe3+)]T[Hyp][hTyr(3S-OH,4S-OH)]T[Pro(3S-OH,4S-Me)]; lactam 1-C) , field solubility: > 3500 µg/mL
